Task for the reader: assign each of the following compounds its reported mass density.
- measurement-context: 316.16 K; 101.33 kPa; Liquid; Vibrating tube method
Give bare numbers, in kg/m3.

Examples with answers:
CCC(=O)[O-].C[NH2+]CCO [2-hydroxy-N-methylethanaminium propionate] ... 1059.51
C[NH2+]CCO.O=C[O-] [2-hydroxy-N-methylethanaminium formate] ... 1118.21
CCCCC(=O)[O-].C[NH2+]CCO [2-hydroxy-N-methylethanaminium pentanoate] ... 1004.07
CCCC(=O)[O-].C[NH2+]CCO [N-methyl-2-hydroxyethylammonium butanoate] ... 1027.09
CC(=O)[O-].C[NH2+]CCO [N-methyl-2-hydroxyethylammonium acetate] ... 1089.95

### Prompt Identify measured mass density associated with CC(C)C(=O)[O-].C[NH2+]CCO [2-hydroxy-N-methylethanaminium isobutyrate]
### Response 1031.68

* * *

- measurement-context: 324.16 K; 101.33 kPa; Liquid; Pulse-echo method
measurement-kind: speed of sound (m/s)
One number for each entry, in m/s.

Worked examples follow.
CCCC(=O)[O-].C[NH2+]CCO [N-methyl-2-hydroxyethylammonium butanoate] ... 1533.1
CCC(=O)[O-].C[NH2+]CCO [2-hydroxy-N-methylethanaminium propionate] ... 1613
CC(C)C(=O)[O-].C[NH2+]CCO [2-hydroxy-N-methylethanaminium isobutyrate] ... 1537.7
CCCCC(=O)[O-].C[NH2+]CCO [2-hydroxy-N-methylethanaminium pentanoate] ... 1468.5

As a next step, examine the compound that follows.
### Prompt Give recorded speed of sound. C[NH2+]CCO.O=C[O-] [2-hydroxy-N-methylethanaminium formate]
### Response 1764.8

* * *

- measurement-context: 320.41 K; 101.33 kPa; Liquid; Pulse-echo method
Kindly supply the reported speed of sound values for the records listed here.
Give bare numbers, in m/s.

CCCCC(=O)[O-].C[NH2+]CCO [2-hydroxy-N-methylethanaminium pentanoate] ... 1480
CC(C)C(=O)[O-].C[NH2+]CCO [2-hydroxy-N-methylethanaminium isobutyrate] ... 1548.4
CCCC(=O)[O-].C[NH2+]CCO [N-methyl-2-hydroxyethylammonium butanoate] ... 1544.8
CCC(=O)[O-].C[NH2+]CCO [2-hydroxy-N-methylethanaminium propionate] ... 1624.2

### Prompt Check the records and state speed of sound for C[NH2+]CCO.O=C[O-] [2-hydroxy-N-methylethanaminium formate]
### Response 1772

* * *

- measurement-context: 330.91 K; 101.33 kPa; Liquid; Pulse-echo method
Kindly state speed of sound for each of the entries shown.
One number for each entry, in m/s.

Guide cases for speed of sound, answers given:
CCCCC(=O)[O-].C[NH2+]CCO [2-hydroxy-N-methylethanaminium pentanoate] ... 1447.8
CC(C)C(=O)[O-].C[NH2+]CCO [2-hydroxy-N-methylethanaminium isobutyrate] ... 1518.4
CCCC(=O)[O-].C[NH2+]CCO [N-methyl-2-hydroxyethylammonium butanoate] ... 1511.9
C[NH2+]CCO.O=C[O-] [2-hydroxy-N-methylethanaminium formate] ... 1751.8

// switching to the query compound
### Prompt Find the measured speed of sound of CCC(=O)[O-].C[NH2+]CCO [2-hydroxy-N-methylethanaminium propionate] and report it.
### Response 1592.6

* * *

- measurement-context: 288.4 K; 101.33 kPa; Liquid; Pulse-echo method
± gives the expanded uncertainty stated by the source.
measurement-kind: speed of sound

CCC(=O)[O-].C[NH2+]CCO [2-hydroxy-N-methylethanaminium propionate] ... 1719.3 ± 2.2 m/s

Please report speed of sound for every entry that follows.
1. CCCC(=O)[O-].C[NH2+]CCO [N-methyl-2-hydroxyethylammonium butanoate]
2. CCCCC(=O)[O-].C[NH2+]CCO [2-hydroxy-N-methylethanaminium pentanoate]
3. C[NH2+]CCO.O=C[O-] [2-hydroxy-N-methylethanaminium formate]
4. CC(C)C(=O)[O-].C[NH2+]CCO [2-hydroxy-N-methylethanaminium isobutyrate]

### Response
1646.5 ± 2.1 m/s
1580.3 ± 2.1 m/s
1834.4 ± 2.2 m/s
1639.3 ± 2.1 m/s

The reported measurements were obtained from the NIST ThermoML archive (doi:10.1021/je900550v).
